Target: T1, GST-NPP-14 (C. elegans, UniProt Q17602 1-1390)
T1 sequence (looked up): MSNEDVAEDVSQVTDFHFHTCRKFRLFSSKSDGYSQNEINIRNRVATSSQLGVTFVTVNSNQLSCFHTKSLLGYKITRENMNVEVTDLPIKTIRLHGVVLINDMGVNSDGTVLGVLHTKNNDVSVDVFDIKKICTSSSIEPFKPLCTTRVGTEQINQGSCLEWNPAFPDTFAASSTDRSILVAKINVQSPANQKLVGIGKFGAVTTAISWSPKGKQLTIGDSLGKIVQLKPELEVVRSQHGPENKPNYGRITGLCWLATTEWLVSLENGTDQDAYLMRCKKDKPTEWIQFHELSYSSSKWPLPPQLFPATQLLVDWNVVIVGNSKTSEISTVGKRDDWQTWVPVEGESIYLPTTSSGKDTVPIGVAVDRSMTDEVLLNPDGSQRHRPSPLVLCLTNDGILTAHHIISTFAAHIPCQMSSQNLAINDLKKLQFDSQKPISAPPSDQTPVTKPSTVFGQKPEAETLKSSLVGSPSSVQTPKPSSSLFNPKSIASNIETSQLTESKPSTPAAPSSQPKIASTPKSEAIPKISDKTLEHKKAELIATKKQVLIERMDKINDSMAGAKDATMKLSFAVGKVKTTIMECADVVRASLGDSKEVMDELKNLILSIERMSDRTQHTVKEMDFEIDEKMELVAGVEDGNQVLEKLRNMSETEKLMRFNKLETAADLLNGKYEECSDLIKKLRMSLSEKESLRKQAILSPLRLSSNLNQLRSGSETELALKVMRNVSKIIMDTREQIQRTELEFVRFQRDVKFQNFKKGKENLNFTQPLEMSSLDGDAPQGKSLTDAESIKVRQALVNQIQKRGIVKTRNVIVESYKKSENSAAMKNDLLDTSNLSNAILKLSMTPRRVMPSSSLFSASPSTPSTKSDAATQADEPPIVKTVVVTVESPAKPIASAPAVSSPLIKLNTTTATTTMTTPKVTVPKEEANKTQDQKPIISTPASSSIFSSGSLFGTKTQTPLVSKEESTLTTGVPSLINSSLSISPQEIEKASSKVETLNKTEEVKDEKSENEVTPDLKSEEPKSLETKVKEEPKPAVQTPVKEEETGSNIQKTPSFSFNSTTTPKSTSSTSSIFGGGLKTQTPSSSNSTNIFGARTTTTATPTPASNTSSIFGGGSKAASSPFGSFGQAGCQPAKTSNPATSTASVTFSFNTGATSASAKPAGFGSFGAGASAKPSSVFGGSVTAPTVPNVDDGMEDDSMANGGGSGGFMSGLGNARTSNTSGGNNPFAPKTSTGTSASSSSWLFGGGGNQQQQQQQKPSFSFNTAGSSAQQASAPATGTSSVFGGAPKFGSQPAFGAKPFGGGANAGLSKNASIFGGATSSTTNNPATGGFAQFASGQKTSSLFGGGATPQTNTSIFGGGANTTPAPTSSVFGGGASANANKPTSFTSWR
Experiment: pull-down
ATTRIBUTE_MEASURED: binding result

{"BINDER": "CED-3(1-220)-His6 L27F (domain or fragment, C. elegans, UniProt P42573 1-220, looked up) MMRQDRRSLLERNIMMFSSHLKVDEIFEVLIAKQVLNSDNGDMINSCGTVREKRREIVKAVQRRGDVAFDAFYDALRSTGHEGLAEVLEPLARSVDSNAVEFECPMSPASHRRSRALSPAGYTSPTRVHRDSVSSVSSFTSYQDIYSRARSRSRSRALHSSDRHNYSSPPVNAFPSQPSSANSSFTGCSSLGYSSSRNRSFSKASGPTQYIFHEEDMNFV", "ATTRIBUTE_MEASURED": "binding result", "RESULT": "binds"}
{"BINDER": "CED-3(1-220)-His6 G65R (domain or fragment, C. elegans, UniProt P42573 1-220, looked up) MMRQDRRSLLERNIMMFSSHLKVDEILEVLIAKQVLNSDNGDMINSCGTVREKRREIVKAVQRRRDVAFDAFYDALRSTGHEGLAEVLEPLARSVDSNAVEFECPMSPASHRRSRALSPAGYTSPTRVHRDSVSSVSSFTSYQDIYSRARSRSRSRALHSSDRHNYSSPPVNAFPSQPSSANSSFTGCSSLGYSSSRNRSFSKASGPTQYIFHEEDMNFV", "ATTRIBUTE_MEASURED": "binding result", "RESULT": "binds"}
{"BINDER": "CED-3(1-220)-His6 (wild-type) (domain or fragment, C. elegans, UniProt P42573 1-220, looked up) MMRQDRRSLLERNIMMFSSHLKVDEILEVLIAKQVLNSDNGDMINSCGTVREKRREIVKAVQRRGDVAFDAFYDALRSTGHEGLAEVLEPLARSVDSNAVEFECPMSPASHRRSRALSPAGYTSPTRVHRDSVSSVSSFTSYQDIYSRARSRSRSRALHSSDRHNYSSPPVNAFPSQPSSANSSFTGCSSLGYSSSRNRSFSKASGPTQYIFHEEDMNFV", "ATTRIBUTE_MEASURED": "binding result", "RESULT": "binds"}

Origin of the recorded values: paper PMC5484413
